# System: Escherichia coli
# Assay name: microbe, parasite or virus in culture
# Reported conditions: 24 h, read-out: ID50
# Description: Antimicrobial activity against Escherichia coli assessed as growth inhibition after 24 hrs by turbidimetric analysis
pIC50: −log10 of the molar value.
Measurement kind: pIC50

Please review the following examples before continuing.
- CCOc1cc(N)ccc1C(=O)O: 3.89
- C=CCOc1cc(N)ccc1C(=O)O: 3.90

I = CCCCOc1cc(N)ccc1C(=O)O
II = Cl.Nc1ccc(C(=O)O)c(Br)c1
Would you let me know which has the greater pIC50 value, I or II ? Kindly give the label for the entry you pick.
II

---

# Subject of test: Albumin (Homo sapiens, UniProt P02768)
# Sequence (P02768 whole entry): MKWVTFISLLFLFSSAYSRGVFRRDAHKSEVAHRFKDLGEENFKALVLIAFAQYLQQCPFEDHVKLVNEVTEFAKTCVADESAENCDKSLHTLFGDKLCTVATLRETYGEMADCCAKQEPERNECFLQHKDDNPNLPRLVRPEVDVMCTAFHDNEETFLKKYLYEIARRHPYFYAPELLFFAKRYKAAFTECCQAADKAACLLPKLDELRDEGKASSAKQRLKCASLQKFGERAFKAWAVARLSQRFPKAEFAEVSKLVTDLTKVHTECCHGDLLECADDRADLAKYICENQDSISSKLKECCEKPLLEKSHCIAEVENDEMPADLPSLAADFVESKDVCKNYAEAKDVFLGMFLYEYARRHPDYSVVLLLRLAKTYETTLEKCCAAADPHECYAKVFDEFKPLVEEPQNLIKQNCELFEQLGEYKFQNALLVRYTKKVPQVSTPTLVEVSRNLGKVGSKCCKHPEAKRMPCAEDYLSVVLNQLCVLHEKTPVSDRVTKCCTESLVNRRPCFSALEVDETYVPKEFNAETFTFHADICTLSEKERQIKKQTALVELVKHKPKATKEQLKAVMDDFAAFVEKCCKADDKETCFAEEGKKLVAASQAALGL
# Assay name: Binding affinity to human serum albumin at 100 umol/l by equilibrium dialysis technique
# Format: ADME
# Reported conditions: isolated protein, 100 µM
Measurement kind: log(PB)

* Nc1ccc(C(=O)O)c(Cl)c1 | 1.36
* CCCOc1cc(N)ccc1C(=O)O | 1.69
* N#CSc1cc(C(=O)O)ccc1N | 1.68
* Nc1ccc(C(=O)O)c(F)c1 | 1.27
* Nc1ccc(C(=O)O)cc1F | 1.52

a = CCCCOc1cc(N)ccc1C(=O)O
b = Nc1ccc(C(=O)O)c(C(=O)O)c1
Please tell me which of the two, a or b , has the higher reported log(PB) value. Pick one; state its label.
a

---

# Tested on: Escherichia coli
# Assay name: microbe, parasite or virus in culture
# Reported conditions: 24 h, read-out: ID50
Measurement kind: IC50 (µM)

// solved cases for IC50 follow
* Nc1ccc(C(=O)O)cc1I | 110
* Nc1ccc(C(=O)O)cc1F | 13
* Cl.Nc1ccc(C(=O)O)cc1N | 40
* Nc1ccc(C(=O)O)c(O)c1 | 25
* N#CSc1cc(C(=O)O)ccc1N | 190
* CCCOc1cc(N)ccc1C(=O)O | 140

A = Nc1ccc(C(=O)O)c(Cl)c1
B = Nc1ccc(C(=O)O)cc1Br
Choose between A and B : whose measured IC50 value is numerically larger? Mark your answer with the label of the selected entry.
B

1 = CCCCCOc1cc(N)ccc1C(=O)O
2 = Cc1cc(N)ccc1C(=O)O
3 = Nc1ccc(C(=O)O)cc1O
4 = Cl.Nc1ccc(C(=O)O)c(N)c1
Please order the records by their reported IC50, lowest number first. Please express your ranking as an ordered list of the labels.
4, 2, 3, 1
(4: 3.5 µM, 2: 30 µM, 3: 85 µM, 1: 135 µM)

I = Nc1ccc(C(=O)O)cc1C(=O)c1ccccc1
II = Cl.Nc1ccc(C(=O)O)c(I)c1
Select one: I or II . Criterion: greater recorded IC50. In your reply, give the label of the chosen option.
I

---

# System: Escherichia coli
# Assay name: Inhibition of Escherichia coli dihydropteroic acid synthesizing system-mediated folate production at 50 to 250 umol/l
The source made the active and inactive calls. No cut-off for these calls is given here.
A correct response names exactly one class from true for active, false for inactive

Solved entries (count: 3):
- Nc1ccc(C(=O)O)c(Cl)c1: false
- CCCCCCOc1cc(C(=O)O)ccc1N: false
- Nc1ccc(C(=O)O)c(O)c1: false

Next compound, please.
What classification did `Nc1ccc(C(=O)O)cc1F` end up with in this test?
true

---

# Assay name: physchem
# Description: Dissociation constant, pKa of the compound by spectrophotometric analysis
Measurement kind: pKa

Before answering, review these 2 worked examples.
* CCCOc1cc(N)ccc1C(=O)O | 4.96
* Nc1ccc(C(=O)O)cc1F | 4.35

A = Nc1ccc(C(=O)O)cc1O
B = Nc1ccc(C(=O)O)c([N+](=O)[O-])c1
Lowest pKa? choose A or B # reply format: chosen label
B
(B: 2.78, A: 4.59)

---

# Assay name: physchem
# Reported conditions: aqueous solution
# Description: Hydrolytic dissociation constant, pKa of the compound in aqueous solution at 50 degC
Measurement kind: pKa

- Nc1ccc(C(=O)O)c(Cl)c1: 3.93
- Nc1ccc(C(=O)O)c([N+](=O)[O-])c1: 3.22
- Nc1ccc(C(=O)O)c(O)c1: 3.62
- Nc1ccc(C(=O)O)cc1: 4.67
- COc1cc(N)ccc1C(=O)O: 5.1
- Cl.Nc1ccc(C(=O)O)c(Br)c1: 3.85
- Nc1ccc(C(=O)O)cc1Br: 4.31

---

# Reported conditions: octanol/water
# Description: Lipophilic-hydrophilic balance, Rm of the compound by TLC analysis
Measurement kind: Rm

- Nc1ccc(C(=O)O)cc1I: 2.95
- Nc1ccc(C(=O)O)cc1[N+](=O)[O-]: 3.11
- CCCCCCCOc1cc(N)ccc1C(=O)O: 3.77
- CC(C)CCOc1cc(N)ccc1C(=O)O: 2.7
- CCOc1cc(N)ccc1C(=O)O: 1.31
- CCCCCOc1cc(N)ccc1C(=O)O: 2.85
- Nc1ccc(C(=O)O)c(O)c1: 1.92
- Nc1ccc(C(=O)O)cc1Br: 2.85
- Nc1ccc(C(=O)O)cc1Cl: 2.38
- CCCCCCCCOc1cc(N)ccc1C(=O)O: 4.25

1 = Cl.Nc1ccc(C(=O)O)c(I)c1
2 = Nc1ccc(C(=O)O)c(F)c1
Of 1 and 2 , which carries the smaller reported Rm figure? API: response body contains the label of the selected item.
2
(2: 1.62, 1: 2.4)

---

# Subject of test: Albumin (Homo sapiens)
# Assay name: Binding affinity to human serum albumin at 100 umol/l by equilibrium dialysis technique
# Format: ADME
# Reported conditions: isolated protein, 100 µM
Measurement kind: log(PB)

• Nc1ccc(C(=O)O)cc1[N+](=O)[O-] = 1.89
• Nc1ccc(C(=O)O)c([N+](=O)[O-])c1 = 1.33
• CCCCCCOc1cc(C(=O)O)ccc1N = 1.97

1 = Cl.Nc1ccc(C(=O)O)c(Br)c1
2 = Cc1cc(N)ccc1C(=O)O
Which one would you say has the larger log(PB) value: 1 , or 2 ? // output: label of the selected item
1
(1: 1.67, 2: 1.16)

I = Nc1ccc(C(=O)O)cc1I
II = Cl.Nc1ccc(C(=O)O)cc1N
Given I and given II , which shows the smaller recorded log(PB)? Pick one and reply with its label.
II

---

# Tested on: Escherichia coli
# Assay name: microbe, parasite or virus in culture
# Reported conditions: 24 h, read-out: ID50
Measurement kind: IC50 (µM)

* COc1cc(N)ccc1C(=O)O | 100
* Nc1ccc(C(=O)O)cc1[N+](=O)[O-] | 130
* Nc1ccc(C(=O)O)cc1C(=O)O | 120
* Nc1ccc(C(=O)O)c(F)c1 | 125

---

# System: Escherichia coli
# Assay name: microbe, parasite or virus in culture
# Reported conditions: 24 h, read-out: ID50
Measurement kind: IC50 (µM)

Solved cases (5 shown):
* CC(C)CCOc1cc(N)ccc1C(=O)O | 125
* CCCCCCOc1cc(C(=O)O)ccc1N | 85
* Nc1ccc(C(=O)O)cc1Cl | 100
* Nc1ccc(C(=O)O)c(C(=O)O)c1 | 120
* CCCCCCCOc1cc(N)ccc1C(=O)O | 90

I = Cc1cc(C(=O)O)ccc1N
II = CCCCCCCCOc1cc(N)ccc1C(=O)O
Which entry shows the lesser value of IC50 here, I or II ? Write down the label of the entry you select.
II

---

# Assay name: physchem
Measurement kind: pKa

Solved cases below.
* CCCCCCCCOc1cc(N)ccc1C(=O)O | 5.4
* COc1cc(N)ccc1C(=O)O | 5.04
* Cl.Nc1ccc(C(=O)O)cc1N | 4.84
* Nc1ccc(C(=O)O)cc1I | 4.34
* CCCCCOc1cc(N)ccc1C(=O)O | 5.1

a = Nc1ccc(C(=O)O)cc1[N+](=O)[O-]
b = Cl.Nc1ccc(C(=O)O)c(N)c1
Two entries are listed, a and b . Which one carries the higher pKa? // return label of chosen record
b
(b: 5.81, a: 3.96)

---

# Reported conditions: octanol/water
Measurement kind: Rm

• Cc1cc(N)ccc1C(=O)O = 1.73
• CCCCOc1cc(N)ccc1C(=O)O = 2.4
• CCCOc1cc(N)ccc1C(=O)O = 1.75

---

# Assay name: physchem
Measurement kind: pKa

- C=CCOc1cc(N)ccc1C(=O)O: 5.01
- Nc1ccc(C(=O)O)cc1Cl: 4.35
- Nc1ccc(C(=O)O)c(F)c1: 4.13
- CCCCOc1cc(N)ccc1C(=O)O: 5.25
- CC(C)CCOc1cc(N)ccc1C(=O)O: 5.17
- Cc1cc(N)ccc1C(=O)O: 4.83
- Cc1cc(C(=O)O)ccc1N: 4.62
- Nc1ccc(C(=O)O)c(Cl)c1: 3.88
- CCCCCCCOc1cc(N)ccc1C(=O)O: 5.3
- Cl.Nc1ccc(C(=O)O)c(Br)c1: 3.69
- Nc1ccc(C(=O)O)cc1C(=O)c1ccccc1: 4.34
- Nc1ccc(C(=O)O)cc1Br: 4.24
- Cl.Nc1ccc(C(=O)O)c(I)c1: 3.81
- CCOc1cc(N)ccc1C(=O)O: 5.09
- Nc1ccc(C(=O)O)c(O)c1 [AMINOSALICYLIC ACID]: 3.52
- N#CSc1cc(C(=O)O)ccc1N: 4.52
- CCCCCCOc1cc(C(=O)O)ccc1N: 4.47
